Data provenance is PubChem BioAssay (NCI).

In this section, each of the molecules is paired with its reported TGI.
test system: UO-31 renal; assay: NCI tumour cell line growth inhibition, 48 h

{"columns": ["MOLECULE", "TGI"],
 "data": [
  ["C[C@H](c1ccc(Cl)cc1[N+](=O)[O-])N1C(=O)c2cc(I)ccc2NC(=O)[C@H]1c1ccc(Cl)cc1", "> 100 µM"],
  ["Cc1cc(C)nc(NS(=O)(=O)c2ccc(NC(=O)c3ccc4nc5ccccc5c(Nc5ccc(S(=O)(=O)Nc6nc(C)cc(C)n6)cc5)c4c3)cc2)n1", "> 100 µM"],
  ["Fc1ccc(C(OCCN2CCC3CCC(C2)N3C/C=C/c2cccnc2)c2ccc(F)cc2)cc1 (stereo not drawn)", "6.09 µM"],
  ["CC1=C(C(=O)NCc2ccccc2)C(c2ccccc2O)C(C(=O)NCc2ccccc2)=C(C)N1", "30.5 µM"],
  ["C#CC1(O)CC(c2ccccc2)N(C)C(c2ccccc2)C1 (stereo not drawn)", "> 100 µM"],
  ["C#Cc1ccccc1N1C(=O)C=CC1=O", "> 100 µM"],
  ["O=c1cc(-c2cccc(Br)c2)[nH]c2cc3c(cc12)OCO3", "37.9 µM"],
  ["C/C(CC(O)(C(F)(F)F)C(F)(F)F)=N/Nc1ccc([N+](=O)[O-])cc1[N+](=O)[O-]", "> 10 µM"],
  ["CCN(CC)c1ccc(N=C2C=CC(=C(C#N)C#N)c3ccccc32)c(C)c1", "6.95 µM"],
  ["COc1cc[nH]c1/C=C1\\C(=O)Nc2ccc([N+](=O)[O-])c(N3CC[C@@H](O)C3)c21", "3.44 µM"],
  ["N#CC1([N+](=O)[O-])C=C1c1ccccc1 (stereo not drawn)", "> 100 µM"],
  ["COc1cccc(-c2cc(=O)c3cc(N4CCCC4)ccc3[nH]2)c1", "> 10 µM"],
  ["CN1CCN(Cc2ccc(NC(=O)c3[nH]ncc3Nc3cc(OC4CCCC4)ncn3)cc2)CC1", "11.2 µM"],
  ["COc1ccc2oc3c(ccc[n+]3C)c(=O)c2c1", "> 100 µM"],
  ["CCCNC(=O)c1cc(NC(=O)c2cc(NC(=O)CCS(=O)(=O)OC)cn2C)cn1C", "> 100 µM"],
  ["Cc1nc2c(s/c(=N\\N)n2-c2ccccc2)c(=O)n1C", "> 100 µM"],
  ["COc1ccc(NC(C)=O)cc1N1C(=O)/C(=C\\c2cccc(Oc3ccccc3)c2)SC1c1ccccc1 (stereo not drawn)", "> 100 µM"],
  ["Cc1cccc(/C=C2\\CCCCCC2=O)c1", "> 100 µM"],
  ["COc1ccc(/C=C2\\CC3C4CC=C5C[C@@H](O)CC[C@]5(C)C4CC[C@]3(C)C2=O)cc1OC (stereo partly drawn)", "90.3 µM"],
  ["Nc1c(O)c(C(=O)O)cc2ccccc12", "> 100 µM"],
  ["Nc1nc2c(ncn2CC(CO)CC(c2ccccc2)P(=O)(O)O)c(=O)[nH]1 (stereo not drawn)", "> 100 µM"],
  ["CN1C(=O)C(O)C[C@@H]1c1ccc(F)cc1 (stereo partly drawn)", "> 100 µM"],
  ["CC(=O)Nc1ccc(OCC(O)CO)cc1 (stereo not drawn)", "> 100 µM"]
]}

---

tested on: A498 renal; assay: NCI tumour cell line growth inhibition, 48 h; in the data active = GI50 below about 0.43 µM; inactive = the rest
Labels: active, inactive

{"columns": ["COMPOUND", "LABEL"],
 "data": [
  ["COC(=O)[C@]1(C)CC[C@]2(C)CC[C@]3(C)C(=CC(=O)[C@@H]4[C@@]5(C)CCC(=O)NC(C)(C)[C@@H]5CC[C@]43C)[C@@H]2C1", "inactive"],
  ["O=C1C=C(OCC=C(Cl)Cl)C(=O)c2ccccc21", "inactive"],
  ["CC1SC(c2cccc(Cl)c2)N(NC(=O)C(O)c2ccccc2)C1=O (stereo not given)", "inactive"],
  ["COc1ccc2c(c1)NC(=O)CN2c1nc(C)nc2ccccc12", "active"],
  ["COc1ccc(-c2cc3c(N)ncnc3o2)cc1", "inactive"],
  ["CN1CCN(Cc2ccc(NC(=O)c3[nH]ncc3Nc3cc(OC4CCCC4)ncn3)cc2)CC1", "inactive"],
  ["CCN1C(=O)N(CC)C2C1NN=c1s/c(=C\\c3cnc(C)n3C)c(=O)n12 (stereo not given)", "inactive"],
  ["CN(C)c1ccc(/C=c2\\sc3nnc(Cc4ccccc4)n3c2=O)cc1", "inactive"],
  ["CCC(=O)Oc1ccc(/C=N/NC(N)=S)nc1", "inactive"],
  ["C=C1C(OCCO)OC2O[C@]3(C)CCC4[C@H](C)CCC1C24OO3 (stereo not given in full)", "inactive"]
]}

---

The reader will find reported TGI values listed item by item below.
test system: LOX IMVI melanoma; assay: NCI tumour cell line growth inhibition, 48 h

{"columns": ["MOLECULE", "READOUT RELATION", "TGI [µM]"],
 "data": [
  ["C=[N+](CNC(=O)CNC(=O)C(Cc1ccccc1)NC(=O)OC(C)(C)C)C(=O)CNC(=O)C(Cc1ccccc1)NC(=O)OC(C)(C)C (configuration not stated)", ">", 100],
  ["COc1ccc(CNC(=O)c2c(C)n([O-])c3cc(F)c(F)cc3[n+]2=O)cc1", "=", 17.5],
  ["CC(=O)Oc1cc2c(n(C)c1=O)CCC2", ">", 100],
  ["NC(C(=O)O)c1ccc(C(=O)O)cc1 (configuration not stated)", ">", 100],
  ["COc1ccc(-c2c(C#N)cnc(N)c2-c2nc3cc(C)c(C)cc3[nH]2)cc1", ">", 100],
  ["CCc1ncc(C(C)(O)c2ccccc2)n1Cc1ccccc1 (configuration not stated)", "=", 94],
  ["O[C@H]1[C@@H]2OC[C@@H](O)[C@H](OCc3ccccc3)[C@@](COCc3ccccc3)(O2)[C@@H]1OCc1ccccc1", "=", 32.7]
]}

---

system: NCI/ADR-RES ovarian; test: NCI tumour cell line growth inhibition, 48 h

{"columns": ["COMPOUND", "TGI"],
 "data": [
  ["Nc1nc(N)c(-c2ccc(Cl)cc2)c(/C=C/c2ccc([N+](=O)[O-])cc2)n1", "> 100 µM"],
  ["COc1ccc(OC)c(/C=C/C(=O)c2ccc3cc(OC)ccc3c2)c1", "> 13.8 µM"],
  ["CCN(CC)c1ccc2cc(-c3csc(-c4ccc(N(C)C)cc4)n3)c(=O)oc2c1", "> 100 µM"],
  ["CCCCn1c2c(n(CCCC)c1=[Se])-c1c(n(CCCC)c(=[Se])n1CCCC)S[Se][Se]S2", "39.5 µM"],
  ["COc1cc2c3c(n(CCCN4CCN(CCO)CC4)c(=O)c2cc1OC)-c1cc2c(cc1C3=O)OCO2", "> 100 µM"],
  ["C[C@]12CC[C@H]3[C@@H](CCC4=CC(=O)CC[C@@]43C)[C@@H]1CC[C@@H]2OC(=O)c1cccc2c(=O)c3ccccc3[nH]c12", "> 100 µM"],
  ["COc1ccc(CNC(=O)c2c(C)n([O-])c3cc(F)c(F)cc3[n+]2=O)cc1", "31.6 µM"],
  ["CC(=O)Nc1ccc2c3c(cc(O)c2c1)N(C(=O)CCCCCC(=O)Nc1ccc2c4c(cc(O)c2c1)N(C(=O)OC(C)(C)C)CC4CCl)CC3CCl (stereo not drawn)", "> 100 µM"]
]}

---

tested on: ACHN renal; assay: NCI tumour cell line growth inhibition, 48 h

{"columns": ["COMPOUND", "TGI"],
 "data": [
  ["COc1ccc([Se]c2ccc(OC)cc2)cc1", "> 100 µM"],
  ["O=Cc1ccc2[nH]c(=O)oc2c1", "> 100 µM"],
  ["NC(N)=N/N=C/c1c(-c2ccc(Cl)cc2)nc2n1CCS2", "27 µM"],
  ["CN1CCN(Cc2ccc(NC(=O)c3cncc(C#Cc4ncc5ccccn45)c3)cc2C(F)(F)F)CC1", "3.8 µM"],
  ["O=C1/C(=C/c2cccc(F)c2)CN(C(=O)C(Cl)Cl)C/C1=C\\c1cccc(F)c1", "0.517 µM"],
  ["C#CC1(O)CC(c2ccccc2)N(C)C(c2ccccc2)C1 (configuration not stated)", "> 100 µM"],
  ["CCOc1ccccc1NC(=O)C(=O)c1c(O)c2ccc(O)cc2oc1=O", "> 100 µM"],
  ["NC1=CN(Cc2ccccc2)C2=N/C(=C\\c3ccco3)C(=O)N12", "> 100 µM"],
  ["CC1CC2(C)CC(=O)C1C1C(=O)N(CCN3CCOCC3)C(=O)C12 (configuration not stated)", "> 100 µM"],
  ["C[C@]12CC[C@H]3[C@@H](CCC4=CC(=O)CC[C@@]43C)[C@@H]1CC[C@@H]2OC(=O)c1cccc2c(=O)c3ccccc3[nH]c12", "> 100 µM"],
  ["COc1cc(OC)c2c(c1Cl)O[C@]1(C2=O)C(OCc2ccccc2)=CC(=O)C[C@H]1C", "> 100 µM"],
  ["Cc1ccc(S(=O)(=O)NC(=O)NCC(=O)O)cc1", "> 100 µM"],
  ["Cc1c(C(=O)Nc2ccc(Cl)cc2)nc(N)nc1-c1cccc(Cl)c1", "> 100 µM"],
  ["Cc1ccc(C)c(C(=N)c2ccccc2Cc2ccccc2)c1", "35.7 µM"],
  ["NC(=O)N=Nc1c2ccccc2n2[nH]ccc12", "> 100 µM"],
  ["CC(=O)Nc1ccc(OCC(O)CO)cc1 (configuration not stated)", "> 100 µM"],
  ["COC(=O)c1c(OC(C)=O)ccc2c1c1cc3ccccc3c(OC(C)=O)c1n2C", "89.4 µM"],
  ["Fc1ccc(C(OCCN2CCC3CCC(C2)N3C/C=C/c2cccnc2)c2ccc(F)cc2)cc1 (configuration not stated)", "27.3 µM"],
  ["CC(=O)O[C@@H]1CN(S(=O)(=O)c2ccc(C)cc2)C[C@@H]1C1CCCCC1", "> 100 µM"],
  ["N#CC12CC3(CCC1CCC1(C2)OCCO1)OCCO3 (configuration not stated)", "> 100 µM"],
  ["O=c1c2cc([N+](=O)[O-])cnc2sn1-c1ccc(Br)cc1", "> 100 µM"],
  ["COC(=O)c1ccccc1Nc1ccccc1C(=O)OC", "> 100 µM"]
]}
